yeast fitness (ln) values, listed per item
B1: tRNA (parent)
chain: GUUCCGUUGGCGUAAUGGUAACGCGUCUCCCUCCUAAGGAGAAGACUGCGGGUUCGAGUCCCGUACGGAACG

# Variants of: B1
# test.description: yeast fitness, log relative to wild type (ln ratio); higher = fitter; tRNA-Arg(CCU), competitive growth, 37 C, 1 M NaCl
Simply state the number, no unit and no words.

In the examples that follow, each entry is paired with its recorded yeast fitness (ln).
# polymer.sequence, yeast fitness (ln)
records = [
    ("AGUCCAUUGGCGUAAUGGUAACGCGUCUCCCUCCUAAGGAGAAGAUUGCGGGUUCGAGUCCCGUAUGGGUUG", -0.141),
    ("GCUCCUUUGGCGUAAUGGUAACGCGUUUCCCUCCUAAGGAGAAGACUGCGGGUUCGAGUCCCGUACGGAUUG", -0.136),
    ("ACUCCUUUGGCGUAAUGGUAACGCGUUUCCCUCCUAAGGAGAAGAUUGCGGGUUCGAGUCCCGUACGGGGCG", -0.176),
    ("AGUCCUUUGGCGUAAUGGUAACGCGUCUCCCUCCUAAGGAGAAGAUUGCGGGUUCGAGUCCCGUAUGGAACG", -0.14),
    ("AUUCCAUUGGCGUAAUGGUAACGCGUCUCCCUCCUAAGGAGACGAUUGCGGGUUCGAGUCCCGUACGGGUCG", -0.283),
    ("GUUCCUUUGGCGUAAUGGUAACGCGUUUCCCUCCUAAGGAGACGAUUGCGGGUUCGAGUCCCGUAUGGAGCG", -0.255),
]

Identify yeast fitness (ln) associated with the variant GUUCCGUUGGCGUAAUGGUAACGCGUCUCCCUCCUAAGGAGAAGAUUGCGGGUUCGAGUCCCGUACGGGACG
-0.00396
